experimental_system: L858R/T790M/C797S EGFR (Homo sapiens, UniProt P00533, C797S/L858R/T790M)
Construct: expressed in transfected cells; host or cells: H1975 clone #25 (lentiviral over-expression, endogenous EGFR knocked out by sgRNA)
Sequence (P00533 25-1210 T790M/C797S/L858R): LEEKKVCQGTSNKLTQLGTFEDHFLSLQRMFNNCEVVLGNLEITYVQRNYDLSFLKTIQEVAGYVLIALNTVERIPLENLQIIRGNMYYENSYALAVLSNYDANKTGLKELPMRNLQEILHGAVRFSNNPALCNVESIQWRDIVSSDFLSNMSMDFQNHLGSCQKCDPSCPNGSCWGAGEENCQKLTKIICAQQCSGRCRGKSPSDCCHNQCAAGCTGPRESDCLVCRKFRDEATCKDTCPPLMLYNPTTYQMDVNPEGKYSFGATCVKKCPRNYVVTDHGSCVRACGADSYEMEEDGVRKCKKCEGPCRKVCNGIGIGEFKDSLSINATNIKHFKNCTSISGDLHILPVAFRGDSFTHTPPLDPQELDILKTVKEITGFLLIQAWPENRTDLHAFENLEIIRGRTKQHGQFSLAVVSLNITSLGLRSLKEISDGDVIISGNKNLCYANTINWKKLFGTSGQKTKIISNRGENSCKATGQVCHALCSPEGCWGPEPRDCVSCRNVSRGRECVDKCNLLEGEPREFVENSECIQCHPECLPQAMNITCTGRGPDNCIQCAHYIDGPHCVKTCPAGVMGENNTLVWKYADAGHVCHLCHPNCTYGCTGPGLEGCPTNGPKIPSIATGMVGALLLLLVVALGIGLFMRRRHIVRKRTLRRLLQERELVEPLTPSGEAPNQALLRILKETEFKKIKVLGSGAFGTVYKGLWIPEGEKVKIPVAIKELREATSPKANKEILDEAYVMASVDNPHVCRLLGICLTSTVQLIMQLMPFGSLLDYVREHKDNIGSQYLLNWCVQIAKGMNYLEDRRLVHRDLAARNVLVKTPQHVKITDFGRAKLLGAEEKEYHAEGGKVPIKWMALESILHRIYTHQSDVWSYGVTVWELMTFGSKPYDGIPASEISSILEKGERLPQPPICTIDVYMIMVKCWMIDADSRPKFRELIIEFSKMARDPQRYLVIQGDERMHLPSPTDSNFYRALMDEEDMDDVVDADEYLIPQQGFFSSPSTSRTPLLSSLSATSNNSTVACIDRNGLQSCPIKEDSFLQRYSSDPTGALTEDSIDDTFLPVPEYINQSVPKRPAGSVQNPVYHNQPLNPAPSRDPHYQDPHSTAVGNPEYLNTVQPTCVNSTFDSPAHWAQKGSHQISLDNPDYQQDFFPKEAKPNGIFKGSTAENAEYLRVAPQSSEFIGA
method_notes: EGFR degradation HTRF assay in H1975-clone #25 (LTC) cells
Format: cell-based
test_context: NCI-H1975, H1975 # 25-LTC (L858R/T790M/C797S), 16h treatment, maximum percentage of degradation
Dmax listing for selected compounds.
Hi! Could you send only the number? It should be in %, unit omitted.

Study these solved cases before continuing.
{"compound": "Cc1cc2cc(n1)-c1cnn(C)c1OCCC[C@@H](C)CN1/C(=N/C2=O)Nc2ccc(C(=O)N(C)C3CCN(CCc4cccc5c4C4(CC4)C(=O)N5C4CCC(=O)NC4=O)CC3)cc21 (stereo partly shown) [Example 316]", "Dmax, %": 77.9}
{"compound": "Cc1cc2cc(n1)-c1cnn(C)c1OCCC[C@@H](C)CN1/C(=N/C2=O)Nc2ccc(C(=O)N(CCN3CCN(c4cc(F)c([C@H]5CCC(=O)NC5=O)c(F)c4)CC3)C(C)C)cc21 [Example 282]", "Dmax, %": 82.9}
{"compound": "Cc1cc2cc(n1)-c1cnn(C)c1OCCC[C@@H](C)CN1/C(=N/C2=O)Nc2ccc(CN3C[C@@H]4C[C@H]3CN4C(=O)[C@@H]3CCN(c4cc(F)c([C@H]5CCC(=O)NC5=O)c(F)c4)C3)cc21 [Example 82]", "Dmax, %": 88.6}

Now for a further compound.
Q: I would be grateful if you could share the reported Dmax for Cc1cc2cc(n1)-c1cnn(C)c1OCCC[C@@H](C)CN1/C(=N/C2=O)Nc2ccc(C(=O)N(C)[C@H]3CCN(CCc4cc(F)c([C@H]5CCC(=O)NC5=O)c(F)c4)C[C@H]3C)cc21 [Example 256] .
A: 88.1
